test system: Escherichia coli; assay: Antibacterial activity against Escherichia coli at 100 ppm by disk diffusion method; type: functional; design: unit not given here
quantity measured: inhibition zone (IZ)
One number for each entry.

compound	observed value
[Se]=P1(CBr)CNc2cccc3cccc(c23)NC1	12
CCC(CO)NCP1(=[Se])CNc2cccc3cccc(c23)NC1 (stereo unspecified)	19
S=P1(CBr)CNc2cccc3cccc(c23)NC1	10
CC(NCP1(=S)CNc2cccc3cccc(c23)NC1)c1ccccc1 (stereo unspecified)	11
CCC(C)OCP1(=S)CNc2cccc3cccc(c23)NC1 (stereo unspecified)	14

--- query ---
Problem: For CC(Cc1ccccc1)OCP1(=[Se])CNc2cccc3cccc(c23)NC1 (stereo unspecified) , what is its reported inhibition zone (IZ)?
Result: 10

###

tested on: Escherichia coli; experiment: Antibacterial activity against Escherichia coli at 25 ppm by disk diffusion method; format: functional; design: unit not given here
quantity measured: inhibition zone (IZ)
Numbers only.

molecule	inhibition zone (IZ)
CC(NCP1(=[Se])CNc2cccc3cccc(c23)NC1)c1ccccc1 (centres undefined)	3
CC(Cc1ccccc1)OCP1(=S)CNc2cccc3cccc(c23)NC1 (centres undefined)	8
CCC(CO)NCP1(=[Se])CNc2cccc3cccc(c23)NC1 (centres undefined)	7
CC(NCP1(=S)CNc2cccc3cccc(c23)NC1)c1ccccc1 (centres undefined)	6
CC(Cc1ccccc1)OCP1(=[Se])CNc2cccc3cccc(c23)NC1 (centres undefined)	7

Hi there! I need inhibition zone (IZ) for each item below, if you can.
1. CCC(C)OCP1(=S)CNc2cccc3cccc(c23)NC1 (centres undefined)
2. S=P1(CBr)CNc2cccc3cccc(c23)NC1
3. [Se]=P1(CBr)CNc2cccc3cccc(c23)NC1
4. CCC(C)OCP1(=[Se])CNc2cccc3cccc(c23)NC1 (centres undefined)

Result:
1. 9
2. 3
3. 4
4. 8
